system: MS2 coat protein; experiment: apparent KD of MS2 coat protein; designed switch direction (-1 OFF switch, 1 ON switch): 1; higher = weaker reporter binding; conditions: input ligand: microRNA oligo, concentration not stated
Consider the following sequences and their measured apparent KD of MS2 coat protein readings.

Here's what some known entries look like.
chain	assay_target	measured_attribute	obs_value
UAGCGCUGUCGAGAGGAUAUGCGGUGAUGGACAUGAGGAUCACCCAUGUUAGCGAUAGCAUUACGGUAGAAGGCUCUACAGCUGU [salish99_ss2_r3_093] (Eterna round: R96, puzzle: Same State 2)	MS2 coat protein	apparent KD of MS2 coat protein	342 nM
AUUAUUAAUGCAGGAUAUGAUUAACAUGAGGAUCACCCAUGUGGUGUUGUGAGUAAGGAGAGUGAUCAGAAGGGCAGUUUUUUU [JMF's solution 8] (Eterna round: R96, puzzle: Same State NG 2)	MS2 coat protein	apparent KD of MS2 coat protein	227 nM
AGAGGAGGCGCAGGAUAUACGACGGAGGACGUGGUAGAAGGGUGCAUGCGAUGACAUGAGGAUCACCCAUGUACCGCGCGACGA [AK SSNG1-V2-16] (Eterna round: R96, puzzle: Same State NG 1)	MS2 coat protein	apparent KD of MS2 coat protein	14.2 nM
GUUACAUGAGGAUCACCCAUGUAUGUGUGGGAGUAAGUGUCUUAGGAUAUCUAUGAGUUAAUUUAAGAGAAGGAAGAUUGUUGU [JMF's solution 74] (Eterna round: R96, puzzle: Same State NG 3)	MS2 coat protein	apparent KD of MS2 coat protein	63.4 nM

Next sequence, apparent KD of MS2 coat protein to be filled in.
Exercise: Give a short answer stating reported apparent KD of MS2 coat protein for UAUCCAUAGAUAGGAUAUUAGUGAACAUGAGGAUCACCCAUGUUUUGCUUGGUUUUAAGUUAAUCUGAGAAGGAUCUUGAUGAA [SameState NG2 #5] (Eterna round: R96, puzzle: Same State NG 2) .
Solution: 14.6 nM
